Test system: EKVX NSCLC
EXPERIMENTAL_PROTOCOL: NCI-60 one-dose screen, 48 h (100 = growth as untreated, 0 = no growth, -100 = all killed)
MEASUREMENT_SETUP: 10 µM unless noted
Compounds without any hit were thinned out: in the full panel of roughly 83,000, 20% have a hit. Activity calls are given as the source filed them. How the source made its calls: active means growth percent below 10; inactive means the rest.
READOUT_NAME: growth

Examples with answers:
{"COMPOUND": "CCN1CCN(CC(=O)Nc2nc3ccc(NCc4ccc(F)cc4)cc3s2)CC1", "ASSAY_VALUE": "86.6% (inactive)"}
{"COMPOUND": "C=C(c1ccc(OC)c(/C=C/C(=O)c2ccc3c(c2)OCO3)c1)c1cc(OC)c(OC)c(OC)c1", "ASSAY_VALUE": "23.4% (inactive)"}
{"COMPOUND": "CCCCCCCCCCCCCCCCCC1=NC(C)(C)CN1CC(C)O (stereo not given)", "ASSAY_VALUE": "78.8% (inactive)"}

# input compound: CCOC(=O)C1=C(C)C(Cl)=N/C1=C\c1[nH]c(Cl)c(C)c1C(=O)OCC ; wanted: its growth
99.5% (inactive)

State the recorded growth for this entry: C[C@H](CCCC(=O)NCC#CCN1CCN(C)CC1)[C@H]1CC[C@H]2[C@@H]3CC[C@@H]4CC(=O)CC[C@]4(C)[C@H]3CC[C@]12C
93.5% (inactive)

====

Tested on: COLO 205 colon
EXPERIMENTAL_PROTOCOL: NCI-60 one-dose screen, 48 h (100 = growth as untreated, 0 = no growth, -100 = all killed)
MEASUREMENT_SETUP: 10 µM unless noted
Protocol: Cells are grown in 96 well plates and exposed to the test compound for 48 hours. Compounds are tested at a single concentration, which is 10^-5 M for most compounds. The reported endpoint is percent growth (GI% or GIPRCNT), where numbers from 0 - 100% represent growth inhibition, and numbers from -100% - 0 represent cell death. For example, a value of 40 represents 60% growth inhibition. A value of 0 means no net growth occurred over the course of the experiment. […]
Compounds without any hit were thinned out: in the full panel of roughly 83,000, 20% have a hit.
Returns condition met if the recorded growth is greater than or equal to 60%, and condition not met otherwise.

Answered cases to consult:
{"COMPOUND_STRUCTURE_STRING": "C[C@@H]1O[C@@H](O[C@@H]2C[C@H](c3ccc4c(c3O)C(=O)C3=C(C4=O)[C@@]4(O)C(=O)C[C@](C)(O)C[C@@]4(O)C=C3)O[C@H](C)[C@H]2O)CC[C@@H]1O[C@H]1C[C@@H](O)[C@H](O)[C@@H](C)O1", "ASSIGNED_LABEL": "condition not met"}
{"COMPOUND_STRUCTURE_STRING": "CCN1CCN(C(=O)[C@]23CC[C@@H](C)[C@H](C)[C@@H]2C2=CC[C@@H]4[C@@]5(C)C/C(=C/c6cccnc6)C(=O)C(C)(C)[C@@H]5CC[C@@]4(C)[C@]2(C)CC3)CC1", "ASSIGNED_LABEL": "condition not met"}
{"COMPOUND_STRUCTURE_STRING": "COc1ccc(-c2nc(/C=C3\\C(=O)N(C)c4ccccc43)c3ccccn23)cc1", "ASSIGNED_LABEL": "condition met"}
{"COMPOUND_STRUCTURE_STRING": "C=C1C(=O)O[C@H]2[C@H]1CC/C(COC(=O)/C=C\\C(=O)NCc1ccc(Cn3c(=O)sn(CCCl)c3=O)cc1)=C\\CC[C@@]1(C)O[C@@H]21", "ASSIGNED_LABEL": "condition not met"}
{"COMPOUND_STRUCTURE_STRING": "NC(=O)c1c(NC(=O)c2cccs2)sc2c1CCC(=O)C2", "ASSIGNED_LABEL": "condition not met"}
{"COMPOUND_STRUCTURE_STRING": "Fc1cccc(-c2ccc3c(c2)C2(CCNCC2)CN3)c1", "ASSIGNED_LABEL": "condition met"}

Is it the case that Oc1c(CN2CCOCC2)cc(COCc2ccccc2)c2cccnc12 has growth reaching or exceeding 60%?
condition met

Textbook exercise: given the entry CC(=O)Oc1ccc(OC(C)=O)c2ccccc12 , state whether its growth is greater than or equal to 60%.
condition met

Measured values drawn from PubChem BioAssay (NCI) for this set.
